System: P. aeruginosa strain WC-453
Protocol notes: Time-kill assay in HEPES or CAA with 25% human serum (Tables 7, 8)
Assay type: cell-based, Pseudomonas aeruginosa
Condition details: CAA + 25% human serum; lysin 10 μg/ml; 1 hr; WC-453
Test readout: CAA/HuS (Log10 CFU/mL), 1 hr
Lab book: enter the figure in Log10 CFU/mL, no units written.

Req: Specify measured CAA/HuS (Log10 CFU/mL), 1 hr for GN80: dispersin B-like molecule (SEQ ID NO: 214) (protein, listed as Staphylococcus sciuri) MENIQKGITVDIARKSYSLETLKTIVKHIHDHNGQYLQLHFSDDENYAIESEYFDRKSFSNPYYLTKTEVKSLIEYSNDLNVMVIPDMDFPSHSKAFLSLIKQNDKSLYQEIISDYSDNTLDFFSNRKAVDVTNRQIDEITELFKQPQFAEQQRIVLGGDEVAGGGAHQNSFIEYMNQIGDYAFQQGYEPQMWNDMVTHEGVKSLNNHYSILYWKQNEDNKSNLTVEDFDKYYFDVYNYNYYSLYFLPSKQFSQDDINEQAEYIGWAYAYNKFYYNKNPYSEVNSQNVKGSALSFWGEHATDMTQEELINQEVPLIKVYFNLKK .
Resp: 6.7

Req: Specify measured CAA/HuS (Log10 CFU/mL), 1 hr for GN40: lysin obtained from Pseudomonas putida strain PA14H7 (SEQ ID NO: 210) (protein, listed as Micavibrio aeruginosavorus) MFRPSYILPGVAAVMLLASTAAHAAGYEWKRVDYQYLQSVSEKERGMLRIYKDYEEREPCQNYRELPPEVKYVDCKLYHRVAIPDPPPPPAPPPAPEPPKVVSSYEIFFPLDSTALDLQANAMVDKAAADIALYQPSTVIVAGYTDTSGAADYNDQLSANRAMAVSAALSQRGIPNTAMDLEAHGQNDLKVPTADDVHEPQNRRTVIHFMK .
Resp: 6.6
